- Tested on: HIV-1 strain IIIB
- Assay comment: Retrovirucidal effect on HIV-1 strain IIIB (Table 3)
- Assay type: cell-based
- Condition parameters: pIC50=-log IC50, IC50 in M
Result type: HIV1 pIC50 strain IIIB
Please state the value as a number alone, without comment.

Note HIV1 pIC50 strain IIIB for the molecule shown: CCc1c(C)[nH]c(=O)c(N(C)C)c1Cc1ccccc1 8.409

Specify reported HIV1 pIC50 strain IIIB for the molecule shown: CCc1c(C)[nH]c(=O)c(N)c1Cc1ccc(OC)c(C)c1 4.934

Give recorded HIV1 pIC50 strain IIIB. CCc1c(C)[nH]c(=O)c(N(C)C)c1CNc1ncccn1 5.895

Provide HIV1 pIC50 strain IIIB value for the following molecule: CCc1c(C)[nH]c(=O)c(N)c1Cc1cccc(C)c1 5.373
